B1: Storkhead-box protein 2, residues 64 to 141; numbered along this chain, Q9P2F5 (parent)
chain: SPISQSQFIPLGEILCLAISAMNSARKPVTQEALMEHLTTCFPGVPTPSQEILRHTLNTLVRERKIYPTPDGYFIVTP

# Variants of: B1
# measurementProtocol: abundance fitness (aPCA) (normalised: wild type 0, dead -1); higher = more abundant; growth selection in yeast, the domain comes from the species named
# measurementParameters: Homo sapiens
measurementType: abundance fitness

| mutantId | measurementType | experimentalValue |
| --- | --- | --- |
| T69G | abundance fitness | -0.003 |
| S1F | abundance fitness | -0.092 |
| H55S | abundance fitness | -0.005 |
| P48T | abundance fitness | -0.357 |
| V29T | abundance fitness | -0.162 |
| V45H | abundance fitness | 0.078 |
| G12C | abundance fitness | -0.135 |
| L17P | abundance fitness | -0.092 |
| L60E | abundance fitness | -0.835 |
| T39S | abundance fitness | -0.043 |
| R54H | abundance fitness | -0.367 |
| I75W | abundance fitness | -0.057 |
| K27S | abundance fitness | -0.045 |
| I19C | abundance fitness | -0.21 |
| E51M | abundance fitness | -0.203 |
| P10R | abundance fitness | 0.089 |
| A33N | abundance fitness | 0.1 |
| T40Y | abundance fitness | -0.069 |
| G72K | abundance fitness | -0.272 |
| P43C | abundance fitness | -0.135 |
| Y73S | abundance fitness | -0.011 |
